Tested on: HepG2 cells
Procedure text: Intracellular ATP content (cell viability) assay
Type: cell-based, human
Conditions: Homo sapiens, HepG2, 40 h, read-out: ATP (HepG2, galactose) IC50
Parameter: IC50
Param answer (str): number followed by unit.

* O=C1c2c(O)ccc([N+](=O)[O-])c2C(=O)c2c([N+](=O)[O-])ccc(O)c21 [1,8-Dihydroxy-4,5-dinitroanthraquinone] | 17 µM

Could you now look at the following compound, please?
Give IC50 for N#CC(c1ccc(Cl)cc1)c1c(Cl)cc(-n2ncc(=O)[nH]c2=O)cc1Cl (centres unmarked) [Diclazuril, reference compound]
43.4 µM

====

System: rat primary hepatocytes
Parameter: MMP assays efficacy (%) Rat Hepatocytes

Below are worked cases with known answers.
* C#C[C@]1(O)CC[C@H]2[C@@H]3CCC4=CCCC[C@@H]4[C@H]3C(=C)C[C@@]21CC | inactive
* CCc1ccccc1O | inactive
* Cc1cnc(NC(=O)C2=C(O)c3ccccc3S(=O)(=O)N2C)s1 | inactive
* CC1(C)[C@H](C=C(Cl)Cl)[C@H]1C(=O)OCc1c(F)c(F)cc(F)c1F [Transfluthrin] | inactive
* CCC(C)(C)c1ccc(O)cc1 | inactive
* C#C[C@]1(OC(C)=O)CC[C@H]2[C@@H]3CCC4=C[C@@H](OC(C)=O)CC[C@@H]4[C@H]3CC[C@@]21C [Ethynodiol diacetate] | inactive

Go through the items and report each one's MMP assays efficacy (%) Rat Hepatocytes.
1. O=C1NC(=O)c2cccc3cccc1c23 [1H-Benzo[de]isoquinoline-1,3(2H)-dione]
2. N#Cc1c2ccccc2cc2ccccc12

1: -43±22%; 2: -32±6%

====

Tested on: rat primary hepatocytes
Parameter: Rat hepatocytes (efficacy) (MMP)

Below are worked cases with known answers.
- O=C1c2c(O)ccc([N+](=O)[O-])c2C(=O)c2c([N+](=O)[O-])ccc(O)c21 [1,8-Dihydroxy-4,5-dinitroanthraquinone]: 16.09±6.94 ( −119±28.1 ) %
- O=C(Nc1ccc(Cl)cc1)Nc1ccc(Cl)c(Cl)c1: 1.77±0.60 ( −73.7±3.11 ) %
- CC[C@@H](C(=O)[C@@H](C)[C@@H](O)[C@H](C)CCc1ccc(C)c(O)c1C(=O)O)[C@H]1O[C@](CC)([C@H]2CC[C@](O)(CC)[C@H](C)O2)C[C@@H]1C [Lasalocid sodium, reference compound]: 1.27±0.23 ( −95.6±2.35 ) %

Go through the items and report each one's Rat hepatocytes (efficacy) (MMP).
1. O=C(Nc1ccc(Oc2ccc(Cl)cc2)c(Cl)c1)c1cc(I)cc(I)c1O [Rafoxanide, reference compound]
2. CCCCCC[C@H]1C(=O)O[C@H](C)[C@H](NC(=O)c2cccc(NC=O)c2O)C(=O)O[C@@H](C)[C@@H]1OC(=O)CC(C)C [Antimycin A, reference compound]
3. CO[C@H]1/C=C/O[C@@]2(C)Oc3c(C)c(O)c4c(O)c(c(/C=N/N5CCN(C)CC5)c(O)c4c3C2=O)NC(=O)/C(C)=C\C=C\[C@H](C)[C@H](O)[C@@H](C)[C@@H](O)[C@@H](C)[C@H](OC(C)=O)[C@@H]1C [Rifampicin, reference compound]

1: 4.50±0.81 ( −72.1±10.3 ) %; 2: 2.65±1.08 ( −94.9±3.37 ) %; 3: 41.4±5.71 ( −97.5±6.10 ) %

Go through the items and report each one's Rat hepatocytes (efficacy) (MMP).
1. CCC(C)c1cc([N+](=O)[O-])cc([N+](=O)[O-])c1O (centres unmarked)
2. C=C(C)[C@H]1Cc2c(ccc3c2O[C@@H]2COc4cc(OC)c(OC)cc4[C@@H]2C3=O)O1 [Rotenone, reference compound]

4.50±0.81 ( −130±39.0 ) %
0.36±0.22 ( −85.9±10.7 ) %
